Cited source for all entries: patent US9000043B2

- target.under.test: UniProtKB P35408
- experiment.notes: In vitro antagonist activity in human whole blood (reversal of PGE2 inhibition of LPS-induced TNFα production)
- Type: cell-based
- assay.setup: LPS 10 μg/mL with 10 nM PGE2, geometric mean±SD, n=11, read-out: IC50 in human blood TNFα induction assay
- Sequence (P35408 whole entry, looked up): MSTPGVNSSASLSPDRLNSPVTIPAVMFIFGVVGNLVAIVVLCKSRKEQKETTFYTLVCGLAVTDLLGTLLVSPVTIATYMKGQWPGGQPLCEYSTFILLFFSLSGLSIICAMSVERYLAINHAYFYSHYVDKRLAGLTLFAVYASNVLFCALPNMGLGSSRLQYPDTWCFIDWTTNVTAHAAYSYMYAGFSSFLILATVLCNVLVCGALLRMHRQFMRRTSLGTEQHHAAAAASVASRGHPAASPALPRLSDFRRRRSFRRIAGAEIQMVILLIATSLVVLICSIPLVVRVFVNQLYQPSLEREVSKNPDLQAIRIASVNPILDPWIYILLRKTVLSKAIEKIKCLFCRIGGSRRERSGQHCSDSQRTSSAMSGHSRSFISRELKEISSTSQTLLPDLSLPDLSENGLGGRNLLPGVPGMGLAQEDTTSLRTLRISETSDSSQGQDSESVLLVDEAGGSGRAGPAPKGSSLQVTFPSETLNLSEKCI

{"compound.structure": "CC(C)[C@@H](OCCOc1ccccc1)C(=O)N[C@@H](C)c1ccc(C(=O)O)cc1", "target.under.test": "UniProtKB P35408", "IC50": "0.02 µM"}

====

- target.under.test: human EP4 (Homo sapiens (Human), UniProt P35408)
- experiment.notes: In vitro human EP4 functional antagonist activity (PGE2-stimulated cAMP, HTRF)
- Assay type: cell-based
- assay.setup: HEK293 cells expressing human EP4, PGE2 at EC80, n=5; read-out: IC50 measured at human EP4 (inhibition of PGE2-stimulated cAMP production)
- Sequence (P35408 whole entry): as the sequence (P35408 whole entry, looked up) above
pIC50: −log10 of the molar value.

{"compound.structure": "CC(C)[C@@H](OCCOc1ccccc1)C(=O)N[C@@H](C)c1ccc(C(=O)O)cc1", "pIC50": 8.66}
